Assignment: determine reported TOX50 HepG2 for the given compounds.
- System: HepG2 cells
- condition_context: HepG2, 48 h

Query :: Returns the measured TOX50 HepG2 for the input compound. Input: O=C(NCc1ccco1)N1CCN(Cc2ccc3c(c2)OCO3)CC1 [TCMDC-143650]
Result :: > 100 µM

Query :: What about NCC(c1cccs1)S(=O)(=O)c1ccccc1 (stereo not drawn) [TCMDC-143655] ?
Result :: 32 µM

Query :: Would you kindly repeat that for NS(=O)(=O)c1ccc(Nc2cnc3ccccc3n2)cc1 [TCMDC-143656] ?
Result :: > 100 µM

Query :: Now the same for O=C(NCc1ccco1)N1CCN(Cc2ccc(Cl)s2)CC1 [TCMDC-143653]
Result :: > 100 µM

Query :: Also check Nc1ccccc1Nc1ccc(Cl)cc1 [TCMDC-143654]
Result :: 79 µM

Query :: Try the compound O=C(NCc1ccco1)N1CCN(Cc2ccc3c(c2)CCO3)CC1 [TCMDC-143652]
Result :: > 100 µM

Query :: // next record COc1ccc2nccc(NC(=O)C3CCN(CCc4ccc(Cl)cc4)CC3)c2n1 [TCMDC-143649]
Result :: > 100 µM

Query :: Can you handle CCCC/C=C/c1cc2ccncc2cc1OC1CCNCC1 [TCMDC-143651] next?
Result :: 16 µM

Query :: Thanks! And CNc1nc(SC)nnc1-c1cccc(Cl)c1Cl [TCMDC-143661] ?
Result :: > 100 µM

---

For each entry below, report its solubility value.
- method: physchem
- condition_context: pH 7.4, kinetic from dmso stock
Hi! Could you send only the number? It should be in µg/mL, unit omitted.

Query :: Please report the recorded solubility for COc1ccc2nccc(NC(=O)C3CCN(CCc4ccc(Cl)cc4)CC3)c2n1 .
Result :: 4

Query :: What do you get for O=C(NCc1ccco1)N1CCN(Cc2ccc(Cl)s2)CC1 ?
Result :: 98

Query :: For Nc1ccccc1Nc1ccc(Cl)cc1 then?
Result :: 59

Query :: Follow-up entry: NCC(c1cccs1)S(=O)(=O)c1ccccc1 (stereo not drawn)
Result :: 134

Query :: Next record, please: CNc1nc(SC)nnc1-c1cccc(Cl)c1Cl
Result :: 85

Query :: Let us now turn to O=C(NCc1ccco1)N1CCN(Cc2ccc3c(c2)CCO3)CC1
Result :: 88

Query :: Try this molecule too: NS(=O)(=O)c1ccc(Nc2cnc3ccccc3n2)cc1
Result :: 112

Query :: Would you mind doing O=C(NCc1ccco1)N1CCN(Cc2ccc3c(c2)OCO3)CC1 as well?
Result :: 86

Query :: Next entry: CCCC/C=C/c1cc2ccncc2cc1OC1CCNCC1
Result :: 36

---

- Test system: M. tuberculosis H37Rv
reported_metric: MIC (µM)
Please state the figure in µM; there is no need to write the unit.

Query :: Please report the recorded MIC for CNc1nc(SC)nnc1-c1cccc(Cl)c1Cl .
Result :: 2.5

Query :: What about this compound? NCC(c1cccs1)S(=O)(=O)c1ccccc1 (stereo not shown)
Result :: 2

Query :: Now this one: NS(=O)(=O)c1ccc(Nc2cnc3ccccc3n2)cc1
Result :: 2

Query :: Now consider O=C(NCc1ccco1)N1CCN(Cc2ccc(Cl)s2)CC1 and answer again.
Result :: 2

---

- System: M. tuberculosis H37Rv
Assignment: determine reported MIC for the given compounds.
# unit: µM | format: bare number

Query :: // query MIC value for entry O=C(NCc1ccco1)N1CCN(Cc2ccc3c(c2)CCO3)CC1
Result :: 2

Query :: Now try O=C(NCc1ccco1)N1CCN(Cc2ccc3c(c2)OCO3)CC1 .
Result :: 1.25

Query :: Same lookup for COc1ccc2nccc(NC(=O)C3CCN(CCc4ccc(Cl)cc4)CC3)c2n1 , please.
Result :: 0.2

Query :: Next record, please: CCCC/C=C/c1cc2ccncc2cc1OC1CCNCC1
Result :: 1.6

Query :: Then Nc1ccccc1Nc1ccc(Cl)cc1 ?
Result :: 2
